Tested on: NCI-H460 lung
Experiment: NCI-60 one-dose screen, 48 h (100 = growth as untreated, 0 = no growth, -100 = all killed)
Conditions: 10 µM unless noted
Experimental: Growth inhibition of the NCI-H460 human Non-Small Cell Lung tumor cell line is measured as a screen for anti-cancer activity. Cells are grown in 96 well plates and exposed to the test compound for 48 hours. Compounds are tested at a single concentration, which is 10^-5 M for most compounds. The reported endpoint is percent growth (GI% or GIPRCNT), where numbers from 0 - 100% represent growth inhibition, and numbers from -100% - 0 represent cell death. […]
About 83,000 compounds went through this panel and 20% of them were active in at least one assay; those are over-represented in the sample as a whole.
OBSERVATION_TYPE: growth (%)
Form entry: value (%) — number only.

Observe how each entry below is paired with its result.
Please give the measured growth for this compound: `O=[N+]([O-])c1ccc(NS(=O)(=O)c2cc(Cl)ccc2Cl)c2ccccc12` 46.6

Please give the measured growth for this compound: `C=C1C(=O)O[C@H]2[C@H]1CC/C(COC(=O)c1ccc(Cl)nc1)=C\CC[C@@]1(C)O[C@@H]21` 56.1

Please give the measured growth for this compound: CC(C(C(=O)N1CCCCC1)N1CCCCC1)N1CCCCC1 (stereo not drawn) 114

Please give the measured growth for this compound: `Cc1c(Cl)ccc2c(C(=O)Cl)cc(-c3ccccc3)nc12` 98.2

Please give the measured growth for this compound: `COc1ccc(C(=O)Cn2cnc3c(Nc4cc(C(=O)Nc5ccc(N6CCN(CCO)CC6)cc5)ccc4C)ncnc32)cc1` 108

Please give the measured growth for this compound: `FC(F)(F)c1cn(CCN2CCOCC2)c2ncnc(Cl)c12` 84.3

Others:
Please give the measured growth for this compound: `FC(F)(F)c1cccc([Si](F)(c2cccc(C(F)(F)F)c2)c2cccc(C(F)(F)F)c2)c1` 73.9

Please give the measured growth for this compound: `O=[N+]([O-])c1cccc2cc(S(=O)(=O)O)ccc12` 110

Please give the measured growth for this compound: `O=C1C(SCCO)=C(SCCO)C(=O)N1c1ccc(-c2ccccc2)cc1` 108

Please give the measured growth for this compound: `O=C(Nc1ccc(-n2ccc3c(NC(=O)c4ccccc4)ncnc32)cc1)Nc1ccc(Cl)c(C(F)(F)F)c1` -62.2

Please give the measured growth for this compound: CC(Cl)(CCl)CS(=O)(=O)c1ccc(Cl)cc1 (stereo not drawn) 107

Please give the measured growth for this compound: N#Cc1c2c(c(N)[nH]c1=O)C(=O)NC2(O)c1ccccc1 (stereo not drawn) 118

Please give the measured growth for this compound: `Clc1ccc2c(c1)nnn1c3ncccc3c(Br)c21` 78.6

Please give the measured growth for this compound: `O=C(c1ccccc1)[C@H]1[C@@H]2CCCN2[C@]2(C(=O)Nc3ccc(F)cc32)[C@]12C(=O)Nc1ccccc12` 93.6

Please give the measured growth for this compound: COC(OC)C1(c2ccccc2)NC(=O)NC1=O (stereo not drawn) 115

Please give the measured growth for this compound: `COc1ccc(Cl)cc1NC(=O)c1cc2c([nH]1)-c1nc(NC(=O)C(C)(C)C)sc1CC2` 18.3

Please give the measured growth for this compound: `COc1cc(-c2nc3sc(C)cn3c2/C=C2\C(=O)Nc3ccccc32)c(Br)c(OC)c1OC` 8.76

Please give the measured growth for this compound: `COc1cc(-c2nc3ccccc3s2)ccc1OCc1nc2n(n1)S(=O)(=O)c1ccccc1N2C` 101

Please give the measured growth for this compound: `O=C(Nc1ccc(-n2ccc3c(NC(=O)c4ccccc4)nccc32)cc1)c1ccc(Cl)c(C(F)(F)F)c1` -67

Please give the measured growth for this compound: `COc1cc(C(=O)NNC(=O)c2ccccc2C(=O)O)cc(OC)c1OC` 11.9
